Reference source for all entries: PubChem BioAssay (NCI)

# Tested on: RPMI-8226 leukemia
# method: NCI-60 one-dose screen, 48 h
# details: 10 µM unless noted
This is part of a sample that, as a whole, favours compounds with a hit. Of some 83,000 tested, about 20% had one in any assay. The source made the active and inactive calls. Rule for the calls: active = growth percent below 10; inactive = the rest.
API: response.call in active, inactive

Look up the recorded call for `CC1=C[C@H]2c3c(c(O)c(O)c4oc5cc(O)ccc5c(=O)c34)[C@H](c3cc(O)c(O)c4oc5cc(O)ccc5c(=O)c34)[C@H]2C(C)(C)C1` in this test.
inactive

Just curious, what result did CC(=O)O[C@H]1C(=O)[C@@]2(C)[C@H]([C@H](OC(=O)c3ccccc3)[C@]3(O)C[C@H](OC(=O)[C@H](OC(=O)CCC(=O)OC4CCC(S/N=C(N)/N=C(\N)N(C)C)CC4)[C@@H](NC(=O)c4ccccc4)c4ccccc4)C(C)=C1C3(C)C)[C@]1(OC(C)=O)CO[C@@H]1C[C@@H]2O (some centres not stated) get here?
inactive

Which outcome was entered for the molecule `CN(C)c1ccc(N=Nc2ccccn2)c(O)c1` in this test?
inactive

Outcome logged for Cc1ccc2c(C(C[N+](=O)[O-])c3ccccc3F)c(-c3ccccc3)[nH]c2c1 (configuration not stated) in this assay:
inactive

Please share the test call associated with `COc1cc2c(cc1O)CC[C@@H]1[C@@H]2CC[C@]2(C)[C@@H](NCCN(C)C)CC[C@@H]12` .
active

Per the records of this test, what outcome belongs to `COc1ccc2c(c1)c(-c1nonc1-c1cn(C)c3ccccc13)cn2C` ?
inactive

Status in this test for `O=C1/C(=C/c2ccc3c(c2)OCO3)SC(=S)N1CCc1ccc(O)cc1` ?
inactive

Dear colleague, could you share the recorded outcome for `COc1cccc(/C=N/NC(=O)c2ccccc2Nc2ccnc(C(F)(F)F)c2)c1O` when you have a moment?
active

Call for entry `C=C1C(=O)O[C@H]2[C@H]1CC/C(COC(=O)NCc1ccc(OC)c(OC)c1)=C\CC[C@@]1(C)O[C@@H]21` :
inactive

Could you kindly confirm the outcome this assay logged for `COc1ccc(NC2=C(Sc3nc(C)cc(C)n3)C(=O)N(Cc3ccccc3)C2=O)cc1Cl` ?
inactive

What did this assay record as the result for `COc1cccc(-c2nc3sccn3c2-c2ccnc(NCCCNS(=O)(=O)c3cccc(F)c3)c2)c1` ?
active

For `CCCSc1ccc2nc(NC(=O)OC)[nH]c2c1` , what call appears in the results of this test?
inactive

Test call for this molecule, please: O=C1NC(=O)C(c2ccc(Cl)cc2Cl)N1 (configuration not stated)
inactive

What did the test return for COc1ccc(C2CC(c3ccc4ccccc4c3)=NN2/C=C2\SC(=S)N(NC(=O)Cc3ccccc3Nc3c(Cl)cccc3Cl)C2=O)cc1 (configuration not stated) ?
active

Which outcome was assigned to COc1cccc2c1C(=O)c1c(O)c3c(c(O)c1C2=O)C[C@](O)(C(=O)CO)C[C@H]3O[C@@H]1C[C@@H](NC(=O)CCCN(C)C2(c3ccc(F)cc3)CC3CCC2C3)[C@H](O)[C@@H](C)O1 (some centres not stated) in this test?
active

Can you look up the reported call for `COc1ccc(CCNc2nc(SC)nc(-c3cccc([N+](=O)[O-])c3)c2C#N)cc1OC` for me?
inactive

Which outcome did this test record for the molecule `COc1ccc(-n2nc(C)c3c(Oc4ccc(NC(=O)Nc5c(Cl)cccc5Cl)cc4)ncnc32)cc1` ?
inactive
